# method: In-vitro cytotoxic effect on cultured L929 cells (MTT assay)
# Format: cell-based
# reported.conditions: mouse
measure: viability at 24 h, 6.25 μg/mL (%)
Hi! Could you send only the number? It should be in %, unit omitted.

So what's the measured viability at 24 h, 6.25 μg/mL for this one? CC(C)[C@H](O)C(=O)/C(O)=C/[C@@H](N)/C=C\CCCC[C@H]1C=C[C@@H](O)C=C1 [Compound of Formula II]
90.8

###

# method: In-vitro cytotoxic effect on cultured L929 cells (MTT assay)
# Assay type: cell-based
# reported.conditions: mouse
measure: viability at 24 h, 100 μg/mL (%)
Hi! Could you send only the number? It should be in %, unit omitted.

So what's the measured viability at 24 h, 100 μg/mL for this one? "CC(C)[C@H](O)C(=O)/C(O)=C/[C@@H](N)/C=C\CCCC[C@H]1C=C[C@@H](O)C=C1"
55.8
